Provide the reported PBM binding z-score of each item.
# Test system: LXRa homodimer (NR concentration 270 nM)
# experimental.details: PBM binding z-score (relative to random genomic background probes); higher = stronger binding; sequences stand for … in GC…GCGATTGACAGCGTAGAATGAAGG
Write the number on its own, no unit after it.

Reported PBM binding z-score of `GCGACTGGGGCAAAGCAGGTTACAATAAGGTTGG` : -0.467

Lab book: PBM binding z-score of `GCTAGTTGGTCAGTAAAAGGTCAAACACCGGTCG` noted as 6.12

Per the record, `TCTTCTAGATCAAAGGTTAAGAAAGCCGAAGCCT` has PBM binding z-score of -0.049

The value of PBM binding z-score measured for the sequence `ATCTCTGGGTAACCAAGTTCAGTGAATGCCGAAC` turned out to be 0.498

response.value for `TATCGGAGGACACGAAAGGTCAGAGCTCGACATC` (field: PBM binding z-score) = 4.27

Kindly note the recorded PBM binding z-score for `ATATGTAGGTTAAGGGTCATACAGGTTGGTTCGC` , which is 2.43

The recorded PBM binding z-score for `CCTACTGGGCCATCAGGTCTTTGATATCAACGTT` is -0.21

PBM binding z-score in this record for `ACTAGCAGGCCACGTTTGGGTCACTCAAACAAAG` : -0.479

Briefly, PBM binding z-score measured for `CGTCCAAGGTCAGAGAGGTCAGTGCATGCCGAGT` : 3.33

Lookup result for `TAGCCAAGGTCATGCGGGCCAGTATAGTGTCGGC` ; measured PBM binding z-score: 1.17

Sample `CCGACTGGGGCAAAGGCTACCATACTCAGTACGA` ; PBM binding z-score observed: -0.186

Reported PBM binding z-score of `ATAGACAGGTGATGAAGGTAACTCAGGCTATCAT` : -0.277

###

# Test system: LXRb homodimer (NR concentration 270 nM)
# experimental.details: PBM binding z-score (relative to random genomic background probes); higher = stronger binding; sequences stand for … in GC…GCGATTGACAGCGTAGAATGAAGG
Hi, to clarify the labels: criterion met covers PBM binding z-score from 0.2 upward, criterion not met covers anything below 0.2.

Quick check, PBM binding z-score >= 0.2? `CGAACGAGCGCATGAGTTGATAGCAAATGCCGAT`
criterion not met

Determine whether this sequence has PBM binding z-score no lower than 0.2: `ATCTCTAGGTAAGACGCAGTTCAGTGAAGAACGC`
criterion not met

Would you say `TCTAGCAGGCCAGAGGGTCACTCATGAGGTACGG` shows PBM binding z-score at minimum 0.2?
criterion not met

Check the entry `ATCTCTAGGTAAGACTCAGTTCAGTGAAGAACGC` : does PBM binding z-score equal or exceed 0.2?
criterion met

API: above_or_equal(metric=PBM binding z-score, cutoff=0.2) for item `CCGACTGGGGCAAAGGTTAACATACTCAGTACGA`
criterion not met

Could you tell me if the measured PBM binding z-score of `CCTATTCGTTGACCATAAGGGCAACCGAAGCTCG` reaches 0.2 or more?
criterion met

###

So I've got a bunch of sequences here, and I need their PBM binding z-score values.
# Tested on: FXR:RXRa (NR concentration 270 nM, RXRa partner concentration 90 nM)
# experimental.details: PBM binding z-score (relative to random genomic background probes); higher = stronger binding; sequences stand for … in GC…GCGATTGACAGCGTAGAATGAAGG

Form field, PBM binding z-score with FXR:RXRa (NR concentration 270 nM, RXRa partner concentration 90 nM), item `TCGAGTAGGTTACCAATGGGGCATACAGCTTTCT` : 0.164

Observed PBM binding z-score, FXR:RXRa (NR concentration 270 nM, RXRa partner concentration 90 nM), `CCGACTGGGTCAAGGTTACCATAACGCACAGCCA` : 3.19

Recorded PBM binding z-score for `TCTCGGAGAACACGAAGGTCAGAGCTTTCCAGAG` on FXR:RXRa (NR concentration 270 nM, RXRa partner concentration 90 nM) was -0.456

// assay FXR:RXRa (NR concentration 270 nM, RXRa partner concentration 90 nM), entry `TCATATAGGTAAACACGTGAAAGTCCGTAAGTTA` , PBM binding z-score value = 0.505

Known value: FXR:RXRa (NR concentration 270 nM, RXRa partner concentration 90 nM) PBM binding z-score of the sequence `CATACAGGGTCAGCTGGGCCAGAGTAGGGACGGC` equals 4.32

The reported FXR:RXRa (NR concentration 270 nM, RXRa partner concentration 90 nM) PBM binding z-score of `ATCCCTAGGTAAGACTCAGTTCAGTGAAGAACGC` is 0.273
